The origin of these recorded values is the supplement of paper PMC6897291.

# Tested on: U-2932
# assay-comment: growth inhibition by drug alone (1 - RLU/untreated control) (fraction); higher = stronger inhibition
# condition-label: 10 nM; time (day): 5; 177Lu-lilotomab satetraxetan 0 ug/ml

>  <compound>
Cc1cc2c(C(C)C)c(O)c(O)c(C=O)c2c(O)c1-c1c(C)cc2c(C(C)C)c(O)c(O)c(C=O)c2c1O

>  <assay-target>
U-2932

>  <growth inhibition by drug alone>
-0.0537

$$$$
>  <compound>
Cc1ccccc1-n1c(Cn2cnc3c(N)ncnc32)nc2cccc(C)c2c1=O

>  <assay-target>
U-2932

>  <growth inhibition by drug alone>
0.0122

$$$$
>  <compound>
N.N.[Cl][Pt][Cl] [Cisplatin]

>  <assay-target>
U-2932

>  <growth inhibition by drug alone>
-0.0126

$$$$
>  <compound>
Cn1cc(C2=C(c3cn(C4CCN(Cc5ccccn5)CC4)c4ccccc34)C(=O)NC2=O)c2ccccc21

>  <assay-target>
U-2932

>  <growth inhibition by drug alone>
-0.0539

$$$$
>  <compound>
C[C@]12CCC(=O)C(O)=C1CC[C@@H]1[C@@H]2CC[C@]2(C)C(=O)CC[C@@H]12

>  <assay-target>
U-2932

>  <growth inhibition by drug alone>
-0.00849

$$$$
>  <compound>
O=C(O)c1nn(Cc2ccc(Cl)cc2Cl)c2ccccc12

>  <assay-target>
U-2932

>  <growth inhibition by drug alone>
0.00199

$$$$
>  <compound>
CC(=O)Nc1ccc(OC[C@](C)(O)C(=O)Nc2ccc([N+](=O)[O-])c(C(F)(F)F)c2)cc1

>  <assay-target>
U-2932

>  <growth inhibition by drug alone>
-0.0579

$$$$
>  <compound>
CN(C)CCN(C)CCc1ccc(Cl)c(Cl)c1

>  <assay-target>
U-2932

>  <growth inhibition by drug alone>
0.000169

$$$$
>  <compound>
CCC1(c2ccc(N)cc2)CCC(=O)NC1=O (centres undefined) [Aminoglutethimide (Cytadren)]

>  <assay-target>
U-2932

>  <growth inhibition by drug alone>
-0.152

$$$$
